Provenance of the data: patent US12257246B2

# Tested on: rabbit saphenous vein
# Method Summary: cells
# Experimental Parameters: Oryctolagus cuniculus, read-out: saphenous vein contraction EC50
Readout Name: EC50
In your response, put the unit directly after the numeric value.

Assign EC50 to the following record: "CNS(=O)(=O)Cc1ccc2[nH]cc(CCN(C)C)c2c1" 660 nM

====

# Method Summary: Oral pharmacokinetics (solution and tablet), Study 1 and Study 2
# Assay type: in vivo, human
# Experimental Parameters: both sexes, human, plasma; 50 to 400 mg tablet formulation, oral; read-out: Median tmax
# Experimental: Plasma samples were analyzed for Compound I using a validated liquid chromatography with tandem mass spectrometric detection (LC/MS/MS) method. Relative bioavailability of tablet and solution formulations for AUCt, AUC∞, and Cmax were assessed. A linear mixed effects model was fitted to the log-transformed PK parameters (AUCt, AUC∞, and Cmax). Included in the model were treatment, period, and sequence as fixed factors and subjects nested within sequences as a random factor. […]
Readout Name: Tmax

State its Tmax: "CN1CCC(C(=O)c2cccc(NC(=O)c3c(F)cc(F)cc3F)n2)CC1" 1.5 to 2.5 h
